Biological target: Jak1 (Homo sapiens, UniProt P23458)
Construct: using a recombinant purified GST-tagged catalytic domain for each enzyme; GST; purchased Invitrogen M4290
Sequence (P23458 875-1153 limits assumed): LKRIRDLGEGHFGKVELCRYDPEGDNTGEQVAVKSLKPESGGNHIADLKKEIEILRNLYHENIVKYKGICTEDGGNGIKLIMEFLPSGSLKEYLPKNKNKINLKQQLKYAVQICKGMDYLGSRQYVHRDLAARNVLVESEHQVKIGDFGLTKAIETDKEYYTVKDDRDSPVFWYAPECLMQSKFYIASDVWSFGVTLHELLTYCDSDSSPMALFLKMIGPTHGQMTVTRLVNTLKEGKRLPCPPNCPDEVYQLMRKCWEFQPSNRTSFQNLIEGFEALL
Assay: Jak Biochemical HTRF Assay (Jak1)
Conditions: Jak1 activity, IC50 class, recombinant GST-tagged catalytic domain
pIC50: −log10 of the molar value.

| molecule | pIC50 |
| --- | --- |
| CC1CCN(C(=O)OCc2ccccc2)C2CCN(c3ncnc4[nH]ccc34)C12 (centres unmarked) [Example 20] | 7.00 to 8.00 |
| O=C(c1cc2ccccc2[nH]1)N1CCC[C@@H]2[C@H]1CCN2c1ncnc2[nH]ccc12 [Example 29-19] | 6.00 to 7.00 |
